The following compounds were reported with IC50 values on UniProt:O75116 in different studies.
Answers are plain numbers, in nM.

These recorded examples may help you get a feel for the data.
The measured IC50 that COc1cc(C(=O)NCC(c2ccccc2)N2CCNCC2)ccc1-c1cn[nH]c1 (centres unmarked) showed for UniProt:O75116 is 103

The measured IC50 that "NC(=O)c1cccnc1Oc1ccc(CC(=O)Nc2nc3cccc(C(F)(F)F)n3n2)cc1F" showed for UniProt:O75116 is 82

The measured IC50 that "O=C(NCCc1ccc2c(c1)OCO2)Nc1ccc2c(c1)OCc1cnccc1-2" showed for UniProt:O75116 is 685

As a next step, examine the compound that follows.
The measured IC50 that "O=C(CC(c1ccccc1)c1ccccc1)Nc1ccc2c(c1)OCc1cnccc1-2" showed for UniProt:O75116 is 471

====

The following compounds were reported with IC50 values on ROCK2 (Homo sapiens, UniProt O75116) in different studies.

The measured IC50 associated with "Cn1c(C(=O)N2CC(F)(F)C2)cc2c1CN(c1nc3c(c(Nc4ccc(-c5cn[nH]c5)cc4)n1)COCC3)CC2" reads ≤ 0.05 µM

The measured IC50 associated with "COC(=O)c1ccc(C(=O)Nc2cccc(CN3CCC(Nc4cccc5cnccc45)CC3)c2)cc1" reads < 0.1 µM

The measured IC50 associated with [H][C@]1(c2n[nH]c(=O)c3ccccc32)C[C@]2(C[C@@H](NC(=O)c3cn4ccc(-c5cnc(C)s5)cc4n3)C2)C1 (stereo partly shown) reads 0.0151 to 0.1 µM

Below is a list of compounds. For each, state its recorded IC50.
1. O=C(Nc1cccc(-c2nc(Nc3ccc4[nH]ncc4c3Cl)no2)c1)c1ccccc1F
2. [2H]C([2H])([2H])n1cc(-c2ccc(NC(=O)NC3CC4(C3)CC(c3n[nH]c(=O)c5ccccc35)C4)cc2)cn1 (stereo not shown)
3. COc1c(F)ccc(NC2CCN(c3ccc(-c4n[nH]c(=O)c5ccccc45)cc3)C2=O)c1F (stereo not shown)
4. CC(C)(O)c1nn(-c2ccc(-c3cn[nH]c3)cc2)c(=O)n1Cc1cc(F)ccc1F
5. COc1cc(F)ccc1CN1C(=O)N(c2ccc(-c3cn[nH]c3)cc2)CC12CCOCC2

1. < 0.3 µM
2. 0.0051 to 0.015 µM
3. 0.01 to 0.1 µM
4. 0.05 to 0.25 µM
5. 0.03 to 0.25 µM

====

The following molecules were reported with pIC50 values on UniProt:O75116 in different studies.
pIC50: −log10 of the molar value.

These recorded examples may help you get a feel for the data.
The measured pIC50 associated with "COc1cccc(CN2CCN(c3ccc4c(c3)CCc3n[nH]cc3-4)C2=O)c1" reads > 8.00

The measured pIC50 associated with "O=C1N(c2ccccc2)CCN1c1ccc(-c2n[nH]c(=O)c3ccccc23)cc1" reads > 8.00

The measured pIC50 associated with "CCc1nc(N2CC3(CCN(C(C)=O)CC3)N(Cc3cccc(F)c3C)C2=O)ccc1-c1cn[nH]c1" reads > 8.52

The measured pIC50 associated with "COC(=O)N1CCC2(CC1)CN(c1ccc(-c3cn[nH]c3)cc1)C(=O)N2Cc1cc(F)cc(OC)c1" reads > 8.52

As a next step, examine the molecule that follows.
The measured pIC50 associated with "Cc1cn(-c2ccc3c(c2)CCN(S(=O)(=O)C2CC2)C3)nc1Nc1ccc2[nH]ncc2c1Cl" reads > 6.52
